# TEST: self-splicing fitness, log relative to wild type (ln ratio); higher = more splicing; Tetrahymena group I intron in knt gene, E. coli kanamycin selection, DiMSum; sequences stand for … in CUCUCU…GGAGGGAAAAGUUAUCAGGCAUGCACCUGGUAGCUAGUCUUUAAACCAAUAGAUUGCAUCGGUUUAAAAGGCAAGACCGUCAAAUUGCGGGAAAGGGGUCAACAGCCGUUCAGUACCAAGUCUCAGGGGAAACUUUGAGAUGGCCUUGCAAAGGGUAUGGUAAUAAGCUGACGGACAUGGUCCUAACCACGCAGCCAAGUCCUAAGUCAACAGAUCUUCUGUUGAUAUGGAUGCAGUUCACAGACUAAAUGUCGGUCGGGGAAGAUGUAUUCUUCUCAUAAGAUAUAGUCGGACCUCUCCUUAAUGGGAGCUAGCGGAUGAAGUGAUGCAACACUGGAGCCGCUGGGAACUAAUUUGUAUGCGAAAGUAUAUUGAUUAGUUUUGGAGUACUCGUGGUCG;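 further: selection with 25 µg/mL kanamycin versus none on LB agar overnight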
# RUN CONDITIONS: 37 °C
EXPERIMENTAL ENDPOINT: self-splicing fitness (ln)

>  <ITEM SEQUENCE>
GGCAAGCAAUAUUACGCCCC

>  <VAL>
-1.27

$$$$
>  <ITEM SEQUENCE>
UUCCAGCAAUAUUACGCGAC

>  <VAL>
-0.902

$$$$
>  <ITEM SEQUENCE>
CUGCAGCAAUAUUACGGGAU

>  <VAL>
-2.1

$$$$
>  <ITEM SEQUENCE>
CCUGAGCAAUAUUACGGGCC

>  <VAL>
-2.45

$$$$
>  <ITEM SEQUENCE>
GCCCAGCAAUAUUACGGCUC

>  <VAL>
-0.219

$$$$
>  <ITEM SEQUENCE>
UUCGAGCAAUAUUACGGGUA

>  <VAL>
-1.36

$$$$
>  <ITEM SEQUENCE>
ACCGAGCAAUAUUACGUUAG

>  <VAL>
-2.65

$$$$
>  <ITEM SEQUENCE>
GACGAGCAAUAUUACGACGU

>  <VAL>
-1.13

$$$$
>  <ITEM SEQUENCE>
UAACAGCAAUAUUACGUGAC

>  <VAL>
-2.46

$$$$
>  <ITEM SEQUENCE>
CGAGAGCAAUAUUACGAUUC

>  <VAL>
-1.19

$$$$
>  <ITEM SEQUENCE>
UGAAAGCAAUAUUACGUCGA

>  <VAL>
-0.374

$$$$
>  <ITEM SEQUENCE>
UUCCAGCAAUAUUACGGAUG

>  <VAL>
0.293

$$$$
>  <ITEM SEQUENCE>
GCAUAGCAAUAUUACGAGAA

>  <VAL>
-2.67

$$$$
>  <ITEM SEQUENCE>
GGUUAGCAAUAUUACGUGUG

>  <VAL>
-1.56

$$$$
>  <ITEM SEQUENCE>
GCCAAGCAAUAUUACGUAAC

>  <VAL>
-0.157

$$$$
>  <ITEM SEQUENCE>
UUCCAGCAAUAUUACGAUCA

>  <VAL>
-1.27

$$$$
>  <ITEM SEQUENCE>
CACCAGCAAUAUUACGGGCG

>  <VAL>
-0.295

$$$$
>  <ITEM SEQUENCE>
CCUCAGCAAUAUUACGCGGC

>  <VAL>
-2.5

$$$$
>  <ITEM SEQUENCE>
UGGAAGCAAUAUUACGGGGA

>  <VAL>
-2.16

$$$$
>  <ITEM SEQUENCE>
CAGAAGCAAUAUUACGAUGG

>  <VAL>
-0.254

$$$$
>  <ITEM SEQUENCE>
GAAUAGCAAUAUUACGUUUC

>  <VAL>
-2.4

$$$$
>  <ITEM SEQUENCE>
UCCAAGCAAUAUUACGGUGA

>  <VAL>
0.493

$$$$
>  <ITEM SEQUENCE>
CCCAAGCAAUAUUACGUCUG

>  <VAL>
-2.18

$$$$
>  <ITEM SEQUENCE>
ACUUAGCAAUAUUACGGGGC

>  <VAL>
-2.55

$$$$
>  <ITEM SEQUENCE>
GGGUAGCAAUAUUACGAUCU

>  <VAL>
-0.576

$$$$
>  <ITEM SEQUENCE>
AGCAAGCAAUAUUACGAAAG

>  <VAL>
-1.36

$$$$
>  <ITEM SEQUENCE>
CUAUAGCAAUAUUACGAAGU

>  <VAL>
-1.93

$$$$

====

# TEST: self-splicing fitness, log relative to wild type (ln ratio); higher = more splicing; Tetrahymena group I intron in knt gene, E. coli kanamycin selection, DiMSum; sequences stand for … in CUCUCU…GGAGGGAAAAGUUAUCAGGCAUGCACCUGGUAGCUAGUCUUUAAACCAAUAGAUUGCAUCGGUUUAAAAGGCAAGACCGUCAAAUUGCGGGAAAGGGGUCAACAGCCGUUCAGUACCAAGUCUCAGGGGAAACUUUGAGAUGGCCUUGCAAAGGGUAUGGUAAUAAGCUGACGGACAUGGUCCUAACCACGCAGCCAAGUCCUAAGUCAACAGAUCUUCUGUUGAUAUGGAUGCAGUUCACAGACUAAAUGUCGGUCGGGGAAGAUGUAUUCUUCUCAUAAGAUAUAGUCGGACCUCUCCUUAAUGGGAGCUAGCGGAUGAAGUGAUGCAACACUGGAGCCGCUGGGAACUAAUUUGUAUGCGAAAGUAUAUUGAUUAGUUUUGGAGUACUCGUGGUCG
# RUN CONDITIONS: 37 °C
In this section, each of the sequences is paired with its reported self-splicing fitness (ln).

>  <ITEM SEQUENCE>
AAUUAGCAAUAUUACGCGAU

>  <self-splicing fitness (ln)>
-2.31

$$$$
>  <ITEM SEQUENCE>
AGGUAGCAAUAUUACGACCA

>  <self-splicing fitness (ln)>
0.199

$$$$
>  <ITEM SEQUENCE>
CCAAAGCAAUAUUACGCGCA

>  <self-splicing fitness (ln)>
-3.13

$$$$
>  <ITEM SEQUENCE>
CCUAAGCAAUAUUACGGGCC

>  <self-splicing fitness (ln)>
-2.12

$$$$
>  <ITEM SEQUENCE>
CUAUAGCAAUAUUACGUCAU

>  <self-splicing fitness (ln)>
-3.05

$$$$
>  <ITEM SEQUENCE>
CGCCAGCAAUAUUACGAAAA

>  <self-splicing fitness (ln)>
-2.7

$$$$
>  <ITEM SEQUENCE>
UUCGAGCAAUAUUACGCACC

>  <self-splicing fitness (ln)>
-1.91

$$$$
>  <ITEM SEQUENCE>
CAUGAGCAAUAUUACGUCAG

>  <self-splicing fitness (ln)>
-1.13

$$$$
>  <ITEM SEQUENCE>
AAUAAGCAAUAUUACGUACG

>  <self-splicing fitness (ln)>
-0.239

$$$$
>  <ITEM SEQUENCE>
GUCUAGCAAUAUUACGGGAA

>  <self-splicing fitness (ln)>
-0.758

$$$$
>  <ITEM SEQUENCE>
GCACAGCAAUAUUACGGCGA

>  <self-splicing fitness (ln)>
-0.758

$$$$
>  <ITEM SEQUENCE>
ACCGAGCAAUAUUACGGCUU

>  <self-splicing fitness (ln)>
-1.14

$$$$
>  <ITEM SEQUENCE>
CUACAGCAAUAUUACGUCUG

>  <self-splicing fitness (ln)>
-1.45

$$$$
>  <ITEM SEQUENCE>
AAUGAGCAAUAUUACGACAU

>  <self-splicing fitness (ln)>
-0.714

$$$$
>  <ITEM SEQUENCE>
UGGCAGCAAUAUUACGGUCA

>  <self-splicing fitness (ln)>
-1.58

$$$$
>  <ITEM SEQUENCE>
GACAAGCAAUAUUACGUGAG

>  <self-splicing fitness (ln)>
-1.43

$$$$
>  <ITEM SEQUENCE>
GCAUAGCAAUAUUACGACGC

>  <self-splicing fitness (ln)>
-0.196

$$$$
>  <ITEM SEQUENCE>
ACACAGCAAUAUUACGAUUG

>  <self-splicing fitness (ln)>
-0.711

$$$$
>  <ITEM SEQUENCE>
UCGAAGCAAUAUUACGUCUC

>  <self-splicing fitness (ln)>
-2.28

$$$$
>  <ITEM SEQUENCE>
UGUAAGCAAUAUUACGGAAC

>  <self-splicing fitness (ln)>
-1.77

$$$$
>  <ITEM SEQUENCE>
AAAGAGCAAUAUUACGCAUA

>  <self-splicing fitness (ln)>
-1.42

$$$$
>  <ITEM SEQUENCE>
GUACAGCAAUAUUACGCGCC

>  <self-splicing fitness (ln)>
-1.49

$$$$
>  <ITEM SEQUENCE>
UGUGAGCAAUAUUACGAUAA

>  <self-splicing fitness (ln)>
-1.92

$$$$
>  <ITEM SEQUENCE>
AUCAAGCAAUAUUACGGUCC

>  <self-splicing fitness (ln)>
-1.75

$$$$
>  <ITEM SEQUENCE>
CGUUAGCAAUAUUACGAUUC

>  <self-splicing fitness (ln)>
-1.68

$$$$
>  <ITEM SEQUENCE>
AGACAGCAAUAUUACGUUAG

>  <self-splicing fitness (ln)>
-2.14

$$$$
>  <ITEM SEQUENCE>
GACUAGCAAUAUUACGUGCG

>  <self-splicing fitness (ln)>
-0.236

$$$$
>  <ITEM SEQUENCE>
CGUUAGCAAUAUUACGAGUU

>  <self-splicing fitness (ln)>
-2.27

$$$$
>  <ITEM SEQUENCE>
GUCAAGCAAUAUUACGCGUC

>  <self-splicing fitness (ln)>
-2.22

$$$$
